Tested on: Propionibacterium acnes NCTC 737
Assay: Disc Diffusion Assay (DDA)
Assay type: cell-based
Details: Cutibacterium acnes, NCTC737; P. acnes NCTC 737; 200 μg of test compound per disc; read-out: DDA (diameter of zone of inhibition)
REPORTED_ENDPOINT: zone of inhibition at 200 µg/disc (mm)

COMPOUND | NUMERIC_RESULT
CCCCCCCCCCCCOS(=O)(=O)O.N [Ammonium dodecyl sulphate (ADS), ammonium dodecyl sulphate] | 22.2
CCCCCCCCCCS(=O)(=O)[O-].[Na+] [Sodium 1-decane sulphonate, sodium 1-decane sulphonate] | 0
CCCCCCCCCS(=O)(=O)[O-].[Na+] [Sodium 1-nonanesulphonate, sodium 1-nonanesulphonate] | 0
CCCCCCCCCOS(=O)(=O)[O-].[Na+] [Sodium n-nonyl sulphate, sodium n-nonyl sulphate] | 0
CCCCCCCOS(=O)(=O)[O-].[Na+] [Sodium-n-heptyl sulphate, sodium-n-heptyl sulphate] | 0
CCCCCCCCCCCCS(=O)(=O)[O-].[Na+] [Sodium 1-dodecanesulphonate, sodium 1-dodecanesulphonate] | 18.1
CCCCCOS(=O)(=O)[O-].[Na+] [Sodium n-pentyl sulphate, sodium n-pentyl sulphate] | 0

###

# maps each entry to its zone of inhibition at 200 µg/disc
Tested on: Propionibacterium acnes NCTC 737
Assay: Disc Diffusion Assay (DDA)
Type: cell-based
Details: Cutibacterium acnes, NCTC737; P. acnes NCTC 737; 200 μg of test compound per disc; read-out: DDA (diameter of zone of inhibition)
Where a name gives a salt, the structure may show the parent alone.

COMPOUND | UNITS_OF_MEASURE | zone of inhibition at 200 µg/disc
CCCCCCCCCCCCCCCCCCS(=O)(=O)O.[Na] [Sodium 1-octadecane sulphonic acid, sodium 1-octadecane sulphonic acid] | mm | 0
CCCCCCCS(=O)(=O)[O-].[Na+] [Sodium 1-heptane sulphonate, sodium 1-heptane sulphonate] | mm | 0
CCCCS(=O)(=O)[O-].[Na+] [Sodium 1-butane sulphonate, sodium 1-butane sulphonate] | mm | 0
CCCCCCCCCCCCCCCS(=O)(=O)O.[Na] [Sodium 1-pentadecane sulphonic acid, sodium 1-pentadecane sulphonic acid] | mm | 11.8
CCCCCCCCCCCCCS(=O)(=O)O.[Na] [Sodium 1-tridecane sulphonic acid, sodium 1-tridecane sulphonic acid] | mm | 28.6
CCCCCS(=O)(=O)[O-].[Na+] [Sodium pentane sulphonate, sodium pentane sulphonate] | mm | 0
CCCCCCCCCCCCOS(=O)(=O)[O-].[Li+] [Lithium dodecyl sulphate, lithium dodecyl sulphate] | mm | 30
CCCCCCCCCCCCCCOS(=O)(=O)O [Sodium n-tetradecyl sulphate, sodium n-tetradecyl sulphate] | mm | 29.9
CCCCCCCCS(=O)(=O)O.[Na] [Sodium 1-octane sulphonic acid, sodium 1-octane sulphonic acid] | mm | 0
CCCCCCCCCCCCCCCCCCOS(=O)(=O)[O-].[Na+] [Sodium octadecyl sulphate, sodium octadecyl sulphate] | mm | 9.41
CCCCCCCCCCCCCOS(=O)(=O)[O-].[Na+] [Sodium tridecyl sulphate, sodium tridecyl sulphate] | mm | 32.2
CCCCCCCCCCCCCCCCOS(=O)(=O)[O-].[Na+] [Sodium hexadecyl sulphate, sodium hexadecyl sulphate] | mm | 36.3
CCCCC(CC)CCC(CC(C)C)OS(=O)(=O)O (centres unmarked) [sulphate sodium salt] | mm | 28.5
CCCCCCCCCCCOS(=O)(=O)[O-].[Na+] [Sodium n-undecyl sulphate, sodium n-undecyl sulphate] | mm | 17.3
CCCCCCCCCCCCCCCCS(=O)(=O)[O-].[Na+] [Sodium 1-hexadecane sulphonate, sodium 1-hexadecane sulphonate] | mm | 0
CCCCCCCCCCOS(=O)(=O)[O-].[Na+] [Sodium decyl sulphate, sodium decyl sulphate] | mm | 0
CCCCCCCCCCCCOS(=O)(=O)[O-].[Na+] [Sodium dodecyl sulphate (SDS), sodium dodecyl sulphate] | mm | 30.7
CCCCCCOS(=O)(=O)[O-].[Na+] [Sodium n-hexyl sulphate, sodium n-hexyl sulphate] | mm | 0
CCCCCCCCCCCCCCS(=O)(=O)O.[Na] [Sodium 1-tetradecane sulphonic acid, sodium 1-tetradecane sulphonic acid] | mm | 11.2
CCCCCCCCOS(=O)(=O)[O-].[Na+] [Sodium octyl sulphate, sodium octyl sulphate] | mm | 0
